Test system: Plasmodium falciparum Sir2 (PF13_0152, Sir2A)
Protocol description: pfSir2 binders on small-molecule microarrays, primary screen, biochemical, small-molecule microarray, 635 nm fluorescence (AID 1098);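 further: score merges spot fluorescence intensity with its signal-to-noise ratio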
Assay conditions: small-molecule microarray binding, fluorescence 635 nm; higher = more signal
Value kind: composite z-score
Reply with the value as a number alone.

Recorded composite z-score for O=C(NCC(F)(F)F)[C@@H]1c2ccccc2C(=O)N(CC23CC4CC(CC(C4)C2)C3)[C@H]1c1ccc(CO)cc1 , please?
0.586

For COCCOC(=O)N1C(=O)[C@@]2(c3cc(C#CC4(O)CCCCCC4)ccc31)[C@H](C(=O)NC[C@H](O)c1ccccc1)[C@H]1C(=O)O[C@H](c3ccccc3)[C@H](c3ccccc3)N1[C@@H]2c1ccc(O)cc1 then?
1.36

For C=CCOC(=O)[C@H]1[C@@H]2C(=O)O[C@@H](c3ccccc3)[C@@H](c3ccccc3)N2[C@@H](c2ccc(OCCOC(=O)[C@@H]3C[C@@H]4C(=O)N[C@@H](CC(C)C)C(=O)N4[C@@H]3c3ccc(O)cc3)cc2)[C@]12C(=O)Nc1ccc(I)cc12 then?
1.09

For COCCOC(=O)N1C(=O)[C@@]2(c3cc(C#CC4(O)CCCCCC4)ccc31)[C@H](c1ccc(OCCO)cc1)N1[C@H](c3ccccc3)[C@H](c3ccccc3)OC(=O)[C@H]1[C@@H]2C(N)=O then?
1.37

For COc1ccc(NN2C(C(O)c3cc(C(F)(F)F)cc(C(F)(F)F)c3)C=CC3C(=O)N(C4CCCCC4)C(=O)C32)cc1 (stereo unspecified) then?
1.12

For O=C1C2C=CC(C(O)c3cccs3)N(Nc3ccccc3)C2C(=O)N1c1ccccc1 (stereo unspecified) then?
0.695

---

Protocol description: compound binding in COS7 lysate, probe aLAP1, primary screen, cell lysate, small-molecule microarray (AID 1124);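 further: lysate comes from COS7 cells expressing LAP1 and is applied at 0.3 µg/mL; score merges spot fluorescence near 667 nm with signal-to-noise over triplicate slides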
Assay conditions: probe aLAP1, fluorescence, higher = more signal
Value kind: composite z-score
Reply with the value as a number alone.

Recorded composite z-score for COc1ccc([Si](C)(C)[C@H]2[C@H](CC(=O)N3Cc4ccccc4C[C@H]3CO)O[C@@]3(C(=O)N(Cc4cccc(N5C(=O)c6cccc7cccc5c67)c4)c4ccccc43)[C@@H]2C)cc1 , please?
0.271

For CCCC[C@H]1OB(O)C[C@H]2C1=C(C)C[C@H]1C(=O)C=CC(=O)[C@H]12 then?
0.121

For CN(C)CCCNC(=O)[C@@]1(Cc2ccccc2I)c2ccccc2C(=O)N(Cc2ccccc2)[C@H]1c1ccc(CO)cc1 then?
1.41

For C[C@H]1C2[C@H](Cc3ccccc3)NC(=O)[C@]23C(=O)NCC(=O)N2CCC[C@H]2C(=O)NC/C=C\C/C=C/C3[C@@H]2O[C@]12C (stereo partly specified) then?
-0.632

For CO[C@H]1O[C@H](CO)[C@@H](OC(=O)Nc2ccccc2)[C@@H]2OC(=O)[C@H](Cc3ccccc3)C/C=C/C[C@@H](Cc3ccccc3)C(=O)O[C@@H]12 then?
0.597

For COCCOC(=O)N1C(=O)[C@@]2(c3cc(C#CC4=CCCCC4)ccc31)[C@H](c1ccccc1OCCO)N1[C@H](c3ccccc3)[C@H](c3ccccc3)OC(=O)[C@H]1[C@@H]2C(N)=O then?
0.561

---

Give measured z-score for each item. Keep answers brief.
Protocol description: modulators of HCV replicon luciferase signal, primary screen, HCV replication inhibitor project, Huh7 cells, luciferase reporter (AID 1109);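 further: huh7 hepatoma cells harbouring a luciferase neomycin HCV replicon reporter; luciferase luminescence as measure of HCV replicon replication; test concentration not given here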
Assay conditions: 48 h, higher = more signal
Reply with the value as a number alone.

Recorded z-score for COc1ccccc1CN1C(=O)c2ccccc2[C@](Cc2ccccc2I)(C(=O)NCCCN(C)C)[C@@H]1c1ccc(CO)cc1 , please?
-3.5

For O=C1O[C@H](c2ccccc2)[C@H](c2ccccc2)N2[C@H]1[C@@H](C(=O)N1CCN(c3ncccn3)CC1)[C@]1(C(=O)Nc3ccccc31)[C@H]2c1ccc(O)cc1 then?
-1.9

For COC(=O)[C@@]1(Cc2ccc(OC)cc2)[C@H]2c3cc(C(=O)N(C)C)n(Cc4ccsc4Br)c3C[C@H]2CN1C(=O)c1ccccc1 then?
-0.235

For COc1ccc(C#Cc2ccc3c(c2)[C@]2(C(=O)N3)[C@H](C(=O)Nc3nc4ccccc4s3)[C@H]3C(=O)O[C@H](c4ccccc4)[C@H](c4ccccc4)N3[C@@H]2c2ccc(OCCO)cc2)cc1 then?
-2.03

For C=CC[C@@]12N=C(c3ccc(OCCCO)cc3)O[C@@H]1c1ccccc1N(Cc1ccccc1)C2=O then?
-2.27

For COC(=O)[C@@]1(Cc2ccc(F)cc2)[C@H]2c3cc(C(=O)N(C)C)n(CCn4cc([N+](=O)[O-])nc4C)c3C[C@H]2CN1C(=O)c1ccccc1 then?
-0.112

For CC(C)C[C@@H]1NC(=O)[C@@]23C(=O)N[C@@H](Cc4ccccc4)C2[C@H](C)[C@@]2(C)O[C@H]2C3/C=C/C/C=C\CNC(=O)[C@@H](CC(C)C)NC1=O (stereo not given in full) then?
0.052

For O=C1C2C=CC(C(O)C(c3ccccc3)c3ccccc3)N(Nc3ccccc3)C2C(=O)N1c1ccccc1 (stereo not given) then?
-0.267

For CN(C)CCCNC(=O)[C@@]1(Cc2ccccc2I)c2ccccc2C(=O)N(Cc2ccccc2)[C@H]1c1ccc(CO)cc1 then?
-3.36

For C=CCC(OC(C)=O)[C@@H]1[C@@H](N(Cc2ccc(-c3cccc(C(F)(F)F)c3)o2)C(=O)Cc2ccc(F)cc2)c2cc(OCCCO)ccc2N1C(=O)c1ccc2ccccc2n1 (stereo not given in full) then?
-0.937

For COc1ccc(CCNC(=O)[C@@]2(C)c3ccccc3C(=O)N(Cc3cc(C(F)(F)F)cc(C(F)(F)F)c3)[C@H]2c2ccc(CO)cc2)cc1 then?
-2.25

For C=CCOC(=O)[C@H]1[C@@H]2C(=O)O[C@@H](c3ccccc3)[C@@H](c3ccccc3)N2[C@@H](c2ccc(OCCOC(=O)[C@@H]3C[C@@H]4C(=O)N[C@@H](Cc5ccccc5)C(=O)N4[C@@H]3c3ccc(O)cc3)cc2)[C@]12C(=O)Nc1ccccc12 then?
-1.85

For CCC[C@@H]1C=C(C(=O)OCC)[C@H](c2ccccc2)N1S(=O)(=O)c1ccc(C)cc1 then?
-1.84

For CCCCCN1CC=CC23O[C@@H]4C=CCOC(=O)[C@@H]4[C@H]2C(=O)N(CCCCCO)[C@@H]3C1=O (stereo not given in full) then?
-0.0591

For COC(=O)C1(CC(C)C)C=C2C(=C(C(C)C)C(=O)C2C)CN1 (stereo not given) then?
-0.193

For CC(=O)NCCCC[C@@H]1NC(=O)[C@H]2C[C@@H](C(=O)NCCCCCC[N+](C)(C)C)[C@@H](c3ccc(O)cc3)N2C1=O then?
1.38

For COCCOC(=O)N1C(=O)[C@@]2(c3cc(C#CCCO)ccc31)[C@H](C(=O)N1CCN(c3ncccn3)CC1)[C@H]1C(=O)O[C@H](c3ccccc3)[C@H](c3ccccc3)N1[C@@H]2c1ccc(O)cc1 then?
-1.65

For C#CCN=C(N)N then?
-0.613

For CC(C)=CCN(C(=O)C#Cc1ccccc1)[C@H](CO)c1ccccc1 then?
-4.92

For CC=CC(O)C1C=CC2C(=O)N(C)C(=O)C2N1NC(=O)OC(C)(C)C (stereo not given) then?
0.381

For Cc1ccc(F)cc1S(=O)(=O)N[C@@H]1CCN(Cc2ccc3c(c2)OCO3)C1 then?
-1.98

For C[N+](C)(C)CCCCCCNC(=O)[C@@H]1C[C@@H]2C(=O)N[C@@H](Cc3ccccc3)C(=O)N2[C@@H]1c1ccc(O)cc1 then?
0.389

For CC(C)C(=C=CC[C@@H](O)c1cccc(OCCO)c1)CCO then?
0.13

For O=C1C2C=CC(C(O)c3cccc(O)c3)N(Nc3ccccc3F)C2C(=O)N1c1ccccc1 (stereo not given) then?
-2.21

For CC(C)C[C@H]1NC(=O)[C@@H](C)NC(=O)[C@@]23C(=O)N[C@@H](Cc4ccccc4)C2[C@H](C)[C@@]2(C)O[C@H]2C3/C=C/C/C=C\CNC1=O (stereo not given in full) then?
-1.61

For C=CC[C@]1(C(=O)OC)N=C(c2ccc(OCCCO)cc2)O[C@H]1c1ccccc1N=[N+]=[N-] then?
0.452

For CN1C(=O)[C@]2(CCC(=O)OC(C)(C)C)N=C(c3ccc(OCCCO)cc3)O[C@@H]2c2ccccc21 then?
-2.88

For CC#CCO[Si](C#CCCCCCC)(C(C)C)C(C)C then?
0.158

For C=C(CCCC)/C(=C/C[C@H](OC(C)=O)c1cccc(OCCO)c1)c1cc(C(=O)OC)ccc1OC then?
-1.95

For C=C(COC)/C(=C/C[C@H](OC(=O)c1ccncc1)c1ccc(OCCO)cc1)c1cc(C(=O)OC)ccc1OC then?
-1.66
